System name: Aurora kinase A (Homo sapiens, UniProt O14965)
Sequence (O14965 whole entry): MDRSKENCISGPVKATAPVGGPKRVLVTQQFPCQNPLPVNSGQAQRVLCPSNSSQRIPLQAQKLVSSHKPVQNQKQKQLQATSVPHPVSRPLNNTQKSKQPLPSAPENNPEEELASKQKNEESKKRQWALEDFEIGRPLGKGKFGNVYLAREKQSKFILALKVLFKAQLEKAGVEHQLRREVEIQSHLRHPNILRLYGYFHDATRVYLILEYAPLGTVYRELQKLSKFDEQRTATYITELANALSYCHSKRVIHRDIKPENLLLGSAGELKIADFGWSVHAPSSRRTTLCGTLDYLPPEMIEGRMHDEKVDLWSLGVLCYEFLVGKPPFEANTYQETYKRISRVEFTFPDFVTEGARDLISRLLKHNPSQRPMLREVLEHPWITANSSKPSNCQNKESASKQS
pIC50: −log10 of the molar value.
Measure name: pIC50

Input O=C(Cc1ccc(-c2ccccc2)cc1)Nc1cc(C2CCC2)[nH]n1 , output reported pIC50.
< 5.00

* * *

System: ASPC1
Protocol: Antiproliferative activity against human AsPC1 cells after 72 hrs by prestoblue assay
Type: functional, cell-based
Conditions used: ASPC1, 72 h
Measure name: IC50 (nM)
Output spec: scalar in nM, unitless text.

Compound structure	IC50, nM
O=C(Cc1ccc(-c2ccccc2)cc1)Nc1cc(C2CCC2)[nH]n1	315

Input O=C(Cc1ccc2ccccc2c1)Nc1cc(C2CCC2)[nH]n1 , output reported IC50.
1160
